B1: library; a variant is named by its letters at N, in order (parent)
chain: GCUGUCACCGGUGCUUGGUACGUUAUAUUCAGCCGGUCUGAUGAGUCUNNNNNNAGACGAAACAGC

variants of: B1; assay: normalized RNA/DNA level without ligand (relative to sTRSVctl = 100) (log10 (% of sTRSVctl)); HEK293T overexpressing SLC46A1; higher = less ribozyme self-cleavage, higher mRNA level; settings: without (6R,S)-folinic acid; ligand present: no
experimental_readout: normalized RNA/DNA level without ligand (log10)
Lab note: record the figure alone, no unit after it.

Examples with their reported normalized RNA/DNA level without ligand (log10) follow.
Entry under test: GCUGUCACCGGUGCUUGGUACGUUAUAUUCAGCCGGUCUGAUGAGUCUAAAAGAAGACGAAACAGC . Its normalized RNA/DNA level without ligand (log10) was 1.96

Entry under test: GCUGUCACCGGUGCUUGGUACGUUAUAUUCAGCCGGUCUGAUGAGUCUAUAAAAAGACGAAACAGC . Its normalized RNA/DNA level without ligand (log10) was 1.99

Entry under test: GCUGUCACCGGUGCUUGGUACGUUAUAUUCAGCCGGUCUGAUGAGUCUAUAUCUAGACGAAACAGC . Its normalized RNA/DNA level without ligand (log10) was 2.04

Entry under test: GCUGUCACCGGUGCUUGGUACGUUAUAUUCAGCCGGUCUGAUGAGUCUGCAAGAAGACGAAACAGC . Its normalized RNA/DNA level without ligand (log10) was 2.02

Entry under test: GCUGUCACCGGUGCUUGGUACGUUAUAUUCAGCCGGUCUGAUGAGUCUACAAUUAGACGAAACAGC . Its normalized RNA/DNA level without ligand (log10) was 2.02

Continuing:
Entry under test: GCUGUCACCGGUGCUUGGUACGUUAUAUUCAGCCGGUCUGAUGAGUCUGUCUAUAGACGAAACAGC . Its normalized RNA/DNA level without ligand (log10) was 2

Entry under test: GCUGUCACCGGUGCUUGGUACGUUAUAUUCAGCCGGUCUGAUGAGUCUCUGUCGAGACGAAACAGC . Its normalized RNA/DNA level without ligand (log10) was 2

Entry under test: GCUGUCACCGGUGCUUGGUACGUUAUAUUCAGCCGGUCUGAUGAGUCUCAUGGCAGACGAAACAGC . Its normalized RNA/DNA level without ligand (log10) was 2.04

Entry under test: GCUGUCACCGGUGCUUGGUACGUUAUAUUCAGCCGGUCUGAUGAGUCUACUAGUAGACGAAACAGC . Its normalized RNA/DNA level without ligand (log10) was 2.02

Entry under test: GCUGUCACCGGUGCUUGGUACGUUAUAUUCAGCCGGUCUGAUGAGUCUACUUUAAGACGAAACAGC . Its normalized RNA/DNA level without ligand (log10) was 1.98

Entry under test: GCUGUCACCGGUGCUUGGUACGUUAUAUUCAGCCGGUCUGAUGAGUCUGGUUAAAGACGAAACAGC . Its normalized RNA/DNA level without ligand (log10) was 1.99

Entry under test: GCUGUCACCGGUGCUUGGUACGUUAUAUUCAGCCGGUCUGAUGAGUCUUCGUCAAGACGAAACAGC . Its normalized RNA/DNA level without ligand (log10) was 2.04

Entry under test: GCUGUCACCGGUGCUUGGUACGUUAUAUUCAGCCGGUCUGAUGAGUCUUCGCCAAGACGAAACAGC . Its normalized RNA/DNA level without ligand (log10) was 2.03

Entry under test: GCUGUCACCGGUGCUUGGUACGUUAUAUUCAGCCGGUCUGAUGAGUCUCGACUUAGACGAAACAGC . Its normalized RNA/DNA level without ligand (log10) was 2.01

Entry under test: GCUGUCACCGGUGCUUGGUACGUUAUAUUCAGCCGGUCUGAUGAGUCUCUAUCAAGACGAAACAGC . Its normalized RNA/DNA level without ligand (log10) was 2.03

Entry under test: GCUGUCACCGGUGCUUGGUACGUUAUAUUCAGCCGGUCUGAUGAGUCUCUAUGUAGACGAAACAGC . Its normalized RNA/DNA level without ligand (log10) was 2.01

Entry under test: GCUGUCACCGGUGCUUGGUACGUUAUAUUCAGCCGGUCUGAUGAGUCUCGCAAGAGACGAAACAGC . Its normalized RNA/DNA level without ligand (log10) was 2.01

Entry under test: GCUGUCACCGGUGCUUGGUACGUUAUAUUCAGCCGGUCUGAUGAGUCUGACGCAAGACGAAACAGC . Its normalized RNA/DNA level without ligand (log10) was 2

Entry under test: GCUGUCACCGGUGCUUGGUACGUUAUAUUCAGCCGGUCUGAUGAGUCUGGUGCUAGACGAAACAGC . Its normalized RNA/DNA level without ligand (log10) was 2
